test system: A375 (Melanoma) human cancer cell line; experiment: In vitro anti-tumor screen, cancer cell antiproliferative assay, A375; type: cell-based; conditions: Homo sapiens, A-375; Table 5, B-ring substitution at X1; melanoma; >100 ng/mL considered inactive; read-out: IC50 A375
QUANTITY: IC50

Give the reported value of IC50 for this record: COc1c(C)cc2c(c1O)[C@@H]1[C@@H]3Cc4c(OC(C)=O)c(C)c5c(c4[C@H](CN4C(=O)c6ccccc6C4=O)N3[C@@H](C#N)[C@H](C2)N1C)OCO5 0.11 ng/mL

Give the reported value of IC50 for this record: COc1c(C)cc2c(c1O)[C@@H]1[C@@H]3Cc4c(OC(C)=O)c(C)c5c(c4[C@H](CN4C(=O)c6ccccc6C4O)N3[C@@H](C#N)[C@H](C2)N1C)OCO5 (stereo partly shown) 0.79 ng/mL

Give the reported value of IC50 for this record: COc1c(C)cc2c(c1O)[C@@H]1[C@@H]3Cc4c(OC(C)=O)c(C)c5c(c4[C@H](CN4C(=O)c6ccncc6C4=O)N3[C@@H](C#N)[C@H](C2)N1C)OCO5 0.36 ng/mL

Give the reported value of IC50 for this record: COc1c(C)cc2c(c1O)[C@@H]1[C@@H]3Cc4c(OC(C)=O)c(C)c5c(c4[C@H](CNC(=O)Cc4ccc(O)cc4)N3[C@@H](C#N)[C@H](C2)N1C)OCO5 6.5 ng/mL

Give the reported value of IC50 for this record: COc1c(C)cc2c(c1O)[C@@H]1[C@@H]3Cc4c(OC(C)=O)c(C)c5c(c4[C@H](CN4C(=O)c6ccc(N)cc6C4=O)N3[C@@H](C#N)[C@H](C2)N1C)OCO5 0.79 ng/mL

Further cases:
Give the reported value of IC50 for this record: COc1c(C)cc2c(c1O)[C@@H]1[C@@H]3Cc4c(OC(C)=O)c(C)c5c(c4[C@H](COC(=O)Nc4ccccc4)N3[C@@H](C#N)[C@H](C2)N1C)OCO5 1.9 ng/mL

Give the reported value of IC50 for this record: COc1c(C)cc2c(c1O)[C@@H]1[C@@H]3Cc4c(OC(C)=O)c(C)c5c(c4[C@H](CN4Cc6ccccc6C4=O)N3[C@@H](C#N)[C@H](C2)N1C)OCO5 0.71 ng/mL

* * *

system: A-549 (Lung) human cancer cell line; experiment: In vitro anti-tumor screen, cancer cell antiproliferative assay, A-549; assay type: cell-based; conditions: A549, Table 8, additional biological data, first value of cell, read-out: IC50 (ng/mL) Lung
IC50 less than 5 ng/mL is YES; IC50 greater than or equal to 5 ng/mL is NO.

Completed entries (count: 3):
API: query returns whether the compound falls strictly under 5 ng/mL in IC50. Query: COc1c(C)cc2c(c1O)[C@@H]1[C@@H]3Cc4c(OC(C)=O)c(C)c5c(c4[C@H](CN4C(=O)c6ccccc6C4=O)N3[C@@H](C#N)[C@H](C2)N1C)OCO5 YES

API: query returns whether the compound falls strictly under 5 ng/mL in IC50. Query: COc1c(C)cc2c(c1O)[C@@H]1[C@@H]3CC4=C(C(=O)C(O)=C(C)C4=O)[C@H](CN4C(=O)c5ccccc5C4=O)N3[C@@H](C#N)[C@H](C2)N1C NO

API: query returns whether the compound falls strictly under 5 ng/mL in IC50. Query: COc1c(C)c(Cl)c2c(c1O)[C@@H]1[C@@H]3Cc4c(OC(C)=O)c(C)c5c(c4[C@H](CN4C(=O)c6ccccc6C4=O)N3[C@@H](C#N)[C@H](C2)N1C)OCO5 YES

Further cases:
API: query returns whether the compound falls strictly under 5 ng/mL in IC50. Query: COC1=C(C)C(=O)C2=C(C1=O)[C@H](CN1C(=O)c3ccccc3C1=O)N1[C@@H](C#N)[C@@H]3Cc4cc(C)c(OC)c(O)c4[C@H]([C@@H]1C2)N3C NO

API: query returns whether the compound falls strictly under 5 ng/mL in IC50. Query: COc1c(C)c(Br)c2c(c1O)[C@@H]1[C@@H]3Cc4c(OC(C)=O)c(C)c5c(c4[C@H](CN4C(=O)c6ccccc6C4=O)N3[C@@H](C#N)[C@H](C2)N1C)OCO5 YES

API: query returns whether the compound falls strictly under 5 ng/mL in IC50. Query: COC1=C(C)C(=O)C2=C(C1=O)[C@@H]1[C@@H]3Cc4c(OC(C)=O)c(C)c5c(c4[C@H](CN4C(=O)c6ccccc6C4=O)N3[C@@H](C#N)[C@H](C2)N1C)OCO5 YES

API: query returns whether the compound falls strictly under 5 ng/mL in IC50. Query: COc1c(C)cc2c(c1O)[C@H]1N[C@@H](C2)[C@H](C#N)N2[C@@H](CN3C(=O)c4ccccc4C3=O)c3c(c(OC(C)=O)c(C)c4c3OCO4)C[C@@H]12 NO

API: query returns whether the compound falls strictly under 5 ng/mL in IC50. Query: COc1c(C)cc2c(c1OC(C)=O)[C@@H]1[C@@H]3Cc4c(OC(C)=O)c(C)c5c(c4[C@H](CN4C(=O)c6ccccc6C4=O)N3[C@@H](C#N)[C@H](C2)N1C)OCO5 NO

API: query returns whether the compound falls strictly under 5 ng/mL in IC50. Query: COCOc1c(OC)c(C)cc2c1[C@@H]1[C@@H]3Cc4c(OC(C)=O)c(C)c5c(c4[C@H](CN4C(=O)c6ccccc6C4=O)N3[C@@H](C#N)[C@H](C2)N1C)OCO5 NO

API: query returns whether the compound falls strictly under 5 ng/mL in IC50. Query: COc1c(C)cc2c(c1O)[C@@H]1[C@@H]3Cc4c(O)c(C)c5c(c4[C@H](CNC(=O)Cc4ccc(OC(C)=O)cc4)N3[C@@H](C#N)[C@H](C2)N1C)OCO5 NO
